system: HCT-8 host cells (Hs18S); details: primary screening at 10 uM, treated vs control
*1 amine or outer side, *2 acyl side, *3 side chain or, on linkers, in order; H or OH if unused. Where a SMILES comes first, the peptide text is derived from it. Bridges are numbered along the chain shown (N, C = ends). Roman numbers before positions name the chains, in order. [ ]: non-standard residue; d: D form. Actinocin(9to1) = Cc1c2oc3c(C)ccc(C(=O)[*:1])c3nc-2c(C(=O)[*:2])c(N)c1=O; NMeV = CN[C@H](C(=O)O)C(C)C; Sar = CNCC(=O)O

{"COMPOUND": "COc1ccc2c(c1)O[C@@H]1COc3cc(OC)c(OC)cc3[C@@H]1C2=O", "Hs18S ΔCT": 0.17}
{"COMPOUND": "Cl.NCCc1ccccc1 [PHENETHYLAMINE HYDROCHLORIDE]", "Hs18S ΔCT": 2.99}
{"COMPOUND": "CC(=O)O[C@@H]1CC2C(C)(CC[C@H](O)C2(C)C)C2CC[C@]3(C)C(=CC(=O)O[C@H]3c3ccoc3)C21C (stereo partly drawn) [3beta-HYDROXYDEOXODIHYDRODEOXYGEDUNIN]", "Hs18S ΔCT": -0.26}
{"COMPOUND": "O=C(O)[C@@H](O)[C@](O)(Cc1ccc(O)cc1)C(=O)O", "Hs18S ΔCT": -0.03}
{"COMPOUND": "CC(C)(O)[C@@H]1[C@H]2OC(=O)[C@@H]1[C@]1(O)C[C@H]3O[C@]34C(=O)O[C@H]2[C@]14C", "Hs18S ΔCT": -0.20}
{"COMPOUND": "O=C1C=C2C=C[C@@H]3C[C@@]2(O1)[C@H]1CCCCN31", "Hs18S ΔCT": 0.05}
{"COMPOUND": "C[C@@H]1O[C@@H](O[C@H]2CC[C@]3(C=O)[C@H]4CC[C@]5(C)[C@@H](C6=CC(=O)OC6)CC[C@]5(O)[C@@H]4CC[C@]3(O)C2)[C@H](O)[C@H](O)[C@H]1O", "Hs18S ΔCT": 10.84}
{"COMPOUND": "Br.CN1[C@H]2C[C@H](OC(=O)[C@H](CO)c3ccccc3)C[C@@H]1[C@@H](O)C2 [ANISODAMINE HYDROBROMIDE]", "Hs18S ΔCT": -0.41}
{"COMPOUND": "NCCc1c[nH]c2ccccc12", "Hs18S ΔCT": -0.43}
{"COMPOUND": "C[C@@H]1CC[C@@]2(OC1)O[C@H]1C[C@H]3[C@@H]4CC[C@H]5C[C@@H](O)CC[C@]5(C)C4=CC[C@]3(C)[C@H]1[C@@H]2C [3beta-HYDROXYISOALLOSPIROST-9(11)-ENE]", "Hs18S ΔCT": -0.17}
{"COMPOUND": "CN1CCC[C@H]1c1cccnc1.O=C(O)C(O)C(O)C(=O)O.O=C(O)C(O)C(O)C(=O)O [NICOTINE BITARTRATE]", "Hs18S ΔCT": -0.52}
{"COMPOUND": "COc1cc(OC)c2c(OC)c(-c3ccc4c(c3)OCO4)c(=O)oc2c1", "Hs18S ΔCT": -0.10}
{"COMPOUND": "COc1cc2c(cc1OC)-c1c(oc3c4c(ccc3c1=O)OC(C(C)C)C4)CO2 (centres unmarked) [DEHYDRODIHYDROROTENONE]", "Hs18S ΔCT": 0.06}
{"COMPOUND": "COc1cc2occ(-c3ccc(OC)c(OC)c3OC)c(=O)c2cc1OC", "Hs18S ΔCT": -0.38}
{"COMPOUND": "CC(=O)O[C@@H]1[C@H]2CC[C@H]3[C@@](C)(O)[C@@H]4C[C@H](O)C(C)(C)[C@@]4(O)[C@H](O)C[C@@]13C[C@@]2(C)O [GR[…]]", "Hs18S ΔCT": -0.03}
{"COMPOUND": "CC1=C2[C@H]3OC(=O)[C@@H](C)[C@@H]3CC[C@@]2(C)C=CC1=O", "Hs18S ΔCT": 0.18}
{"COMPOUND": "CC1(C)C(=O)[C@@H]2O[C@@H]2[C@@]2(C)C1C[C@@H](O)[C@]1(C)C2CC[C@@]2(C)[C@H](c3ccoc3)OC(=O)C3OC321 (stereo partly drawn) [1,2alpha-EPOXYDEACETOXYDIHYDROGEDUNIN]", "Hs18S ΔCT": -0.18}
{"COMPOUND": "COc1ccc2c(c1)O[C@H]1c3ccc(OC)cc3OC[C@@H]21", "Hs18S ΔCT": -0.01}
{"COMPOUND": "O=C(O)c1cc(O)c2cccc(O)c2n1 [X[…]]", "Hs18S ΔCT": -0.32}
{"COMPOUND": "CCC(C)C(=O)O[C@@H]1C[C@@]2(C)[C@H](c3ccoc3)OC(=O)CC23OC2(C)OC34[C@H](OC(=O)C(C)C)[C@@]3(O)[C@@H](OC(=O)C5(C)OC5C)[C@@]5(C)C[C@]3(O)[C@@](C)([C@H]5CC(=O)OC)C14O2 (some centres unmarked)", "Hs18S ΔCT": -0.12}
{"COMPOUND": "C=C(C)[C@@H]1CC=C(C(=O)O)CC1 [PERILLIC ACID (-)]", "Hs18S ΔCT": 0.14}
{"COMPOUND": "N[C@@H]1CONC1=O", "Hs18S ΔCT": -0.38}
{"COMPOUND": "N=C(N)NOCC[C@H](N)C(=O)O", "Hs18S ΔCT": 0.29}
{"COMPOUND": "C[C@H]1O[C@@H](O[C@H]2[C@@H](O)C[C@H](O[C@H]3[C@@H](O)C[C@H](O[C@H]4CC[C@@]5(C)[C@H](CC[C@@H]6[C@@H]5CC[C@]5(C)[C@@H](C7=CC(=O)OC7)CC[C@]65O)C4)O[C@@H]3C)O[C@@H]2C)C[C@H](O)[C@@H]1O", "Hs18S ΔCT": 13.47}
{"COMPOUND": "Cc1c2oc3c(C)ccc(C(=O)N[C@@H]4C(=O)N[C@H](C(C)C)C(=O)N5CCC[C@H]5C(=O)N(C)CC(=O)N(C)[C@@H](C(C)C)C(=O)O[C@@H]4C)c3nc-2c(C(=O)N[C@@H]2C(=O)N[C@H](C(C)C)C(=O)N3CCC[C@H]3C(=O)N(C)CC(=O)N(C)[C@@H](C(C)C)C(=O)O[C@@H]2C)c(N)c1=O [Dactinomycin, reference compound] (I: T[dV]P[Sar][NMeV] / II: T[dV]P[Sar][NMeV]; ester I:1-I:C, II:1-II:C; linker I:N-II:N via Actinocin(9to1))", "Hs18S ΔCT": 1.50}
{"COMPOUND": "N[C@@H](CSCSC[C@H](N)C(=O)O)C(=O)O", "Hs18S ΔCT": 0.00}

---

# cytotoxicity at 41 h, 10 µM per entry
assay: in vitro; details: human

{"COMPOUND": "C[C@H](CCC(=O)O)[C@H]1CC[C@H]2[C@@H]3CC[C@@H]4C[C@H](O)CC[C@]4(C)[C@H]3C[C@H](O)[C@]12C [DEOXYCHOLIC ACID]", "UNIT_SYMBOL": "%", "cytotoxicity at 41 h, 10 µM": 31.7}
{"COMPOUND": "OC[C@H]1O[C@@H](Oc2cc(O)cc(/C=C/c3ccc(O)cc3)c2)[C@H](O)[C@@H](O)[C@@H]1O [PICEID]", "UNIT_SYMBOL": "%", "cytotoxicity at 41 h, 10 µM": -28.7}
{"COMPOUND": "N[C@@H](Cc1c[nH]c2ccccc12)C(=O)O [TRYPTOPHAN]", "UNIT_SYMBOL": "%", "cytotoxicity at 41 h, 10 µM": -68.2}
{"COMPOUND": "C=C1C(=O)O[C@@H]2C[C@@]3(C)CCC[C@H](C)C3=C[C@H]12 [HELENINE]", "UNIT_SYMBOL": "%", "cytotoxicity at 41 h, 10 µM": 6.4}

---

# Hs18S ΔCT per entry
tested on: HCT-8 host cells (Hs18S); settings: primary screening at 10 uM, treated vs control
Structures can show the parent of a compound that is named as a salt.

{"COMPOUND": "C=CCN1CC[C@]23c4c5ccc(O)c4O[C@H]2C(=O)CC[C@@]3(O)[C@H]1C5 [NALOXONE HYDROCHLORIDE]", "Hs18S ΔCT": 0.20}
{"COMPOUND": "CC1(C)[C@@H](O[C@H]2O[C@H](C(=O)O)[C@@H](O)[C@H](O)[C@H]2O[C@@H]2O[C@H](C(=O)O)[C@@H](O)[C@H](O)[C@H]2O)CC[C@]2(C)[C@H]3C(=O)C=C4[C@@H]5C[C@@](C)(C(=O)O)CC[C@]5(C)CC[C@@]4(C)[C@]3(C)CC[C@@H]12.N [GLYCYRRHIZIC ACID, AMMONIUM SALT]", "Hs18S ΔCT": -0.52}
{"COMPOUND": "NC(=O)NCCC[C@H](N)C(=O)O [CITRULLINE]", "Hs18S ΔCT": 0.62}
{"COMPOUND": "COc1cc2c(cc1OC)-c1c(oc3cc(O)cc(O)c3c1=O)CO2 [APOTOXICAROL]", "Hs18S ΔCT": 0.16}
{"COMPOUND": "Cc1c(S(=O)(=O)[O-])oc2c1C(=O)C(=O)c1c-2ccc2c1CCCC2(C)C.[Na+] [TANSHINONE IIA SULFONATE SODIUM]", "Hs18S ΔCT": 0.01}
{"COMPOUND": "Nc1ccccc1C(=O)CC(N)C(=O)O (stereo not shown) [KYNURENINE]", "Hs18S ΔCT": 0.48}
{"COMPOUND": "O=C(O)/C=C/C=C/c1ccc2c(c1)OCO2 [PIPERIC ACID]", "Hs18S ΔCT": -0.02}
